testMethodNotes: Caco-2 membrane permeability, improved method as used in the following Examples (96-well, 20 to 24 h preincubation)
Format: in vitro ADME
experimentalContext: human, Caco-2, Caco-2
Description: In the following Examples, membrane permeability was measured in accordance with the improved method established as described above. […] Each well was shaken at 5% CO2, 37° C., and 80 rpm, and 180 minutes after the initiation, the sample on the basal side was collected and the permeation amount was measured by LC/MS. The membrane permeability coefficient (Papp) was calculated from the permeation amount. […]
Positions of bridges follow the written chain, without caps; N, C: chain ends. Non-standard residues stand in square brackets, D forms with d. Residues, ends and D or L forms follow the SMILES beside them. *: point of attachment. NMeF = CN[C@@H](Cc1ccccc1)C(=O)O; NMeI = CC[C@H](C)[C@H](NC)C(=O)O; NMeL = CN[C@@H](CC(C)C)C(=O)O; Propyl(2R-OH) = C[C@@H](O)C*; NMeA = CN[C@@H](C)C(=O)O; Piperidide = C1CCN(*)CC1; Isopentyl = CC(C)CC*; Sar = CNCC(=O)O
# Papp A→B at 180 min per record follows
readoutLabel: Papp A→B at 180 min (×10⁻⁶ cm/s)

>>> readoutvalue("CC(C)CCOC[C@@H]1NC(=O)[C@H](C)N(C)C(=O)C[C@@H](C(=O)N2CCCCC2)NC(=O)[C@H](CC(C)C)N(C)C(=O)CN(C)C(=O)[C@H]([C@@H](C)O)NC(=O)[C@H](CC(C)C)N(C)C(=O)[C@H](Cc2ccccc2)N(C)C(=O)[C@H](C(C)C)NC(=O)[C@H](Cc2ccccc2)N(C)C(=O)[C@H](CC(C)C)N(C)C1=O [pd304] ([NMeA]S(Isopentyl)[NMeL][NMeF]V[NMeF][NMeL]T[Sar][NMeL]D-Piperidide; lactam N-11)")
2.2
>>> readoutvalue("CC[C@H](C)[C@H]1C(=O)N[C@@H](COC[C@@H](C)O)C(=O)N(C)CC(=O)N(C)[C@@H](CC(C)C)C(=O)N[C@H](C(=O)N2CCCCC2)CC(=O)N(C)[C@@H](C)C(=O)N[C@@H](CC(C)C)C(=O)N(C)[C@@H](CC(C)C)C(=O)N(C)[C@@H](Cc2ccccc2)C(=O)N[C@@H](CC(C)C)C(=O)N(C)[C@@H](Cc2ccccc2)C(=O)N1C [pd494] ([NMeA]L[NMeL][NMeF]L[NMeF][NMeI]S(Propyl(2R-OH))[Sar][NMeL]D-Piperidide; lactam N-11)")
5.2

====

testMethodNotes: Caco-2 membrane permeability, improved method as used in the following Examples (96-well, 20 to 24 h preincubation)
Type: in vitro ADME
experimentalContext: human; Papp, Caco-2 membrane permeability, improved method; read-out: Caco-2
Positions of bridges follow the written chain, without caps; N, C: chain ends. Non-standard residues stand in square brackets, D forms with d. Residues, ends and D or L forms follow the SMILES beside them. *: point of attachment. NMeF = CN[C@@H](Cc1ccccc1)C(=O)O; NMeL = CN[C@@H](CC(C)C)C(=O)O; NMeV = CN[C@H](C(=O)O)C(C)C; Piperidide = C1CCN(*)CC1; Sar = CNCC(=O)O
readoutLabel: Papp A→B at 180 min (×10⁻⁶ cm/s)

>>> readoutvalue("CNC(=O)CC[C@@H]1NC(=O)[C@H](CC(C)C)N(C)C(=O)[C@H](C(C)C)N(C)C(=O)[C@H](Cc2ccccc2)NC(=O)[C@H](Cc2ccccc2)N(C)C(=O)[C@H](CC(C)C)N(C)C(=O)[C@H](CC(C)C)NC(=O)[C@H](CC(C)C)N(C)C(=O)C[C@@H](C(=O)N2CCCCC2)NC(=O)[C@H](CC(C)C)N(C)C(=O)CN(C)C1=O [pd463] ([NMeL]L[NMeL][NMeF]F[NMeV][NMeL]E(NHMe)[Sar][NMeL]D-Piperidide; lactam N-11)")
1.2

Values from patent US20200131669A1
